Tested on: Plasmodium falciparum parasite
PROCEDURE_SUMMARY: Whole cell assay: whole cell activity against the parasite
Format: cell-based
Structures can show the parent of a compound that is named as a salt.
Parameter IC50: see the listing below.

These recorded examples may help you get a feel for the data.
In [3]: df
Out[3]:
                                   compound  recorded_endpoint        result
0  CC(=O)N1CCC(N(NC(=O)OC(C)(C)C)c2nc(C#N)ncc2Br)CC1               IC50  15 to 150 nM
1  CN1CCN(C2CCN(Cc3ccc(C(=O)NN(c4nc(C#N)ncc4Cl)C4CCCCC4)cc3)CC2)CC1               IC50  2.5 to 15 nM
2  CN1CCC(CN2CCN(Cc3ccc(C(=O)NN(c4nc(C#N)ncc4Br)C4CCCC4)cc3)CC2)CC1 [Example 7, trifluoroacetate]               IC50   1 to 2.5 nM

Now take the following compound into account.
Suppose we examine the compound `CN1CCN(c2ncc(C(=O)NN(c3nc(C#N)ncc3Cl)C3CCCC3)s2)CC1` ; what IC50 value has been reported?
15 to 150 nM
